System: OVCAR-5 ovarian
Test: NCI tumour cell line growth inhibition, 48 h
Can you tell me TGI for the items I'm about to list?

Each molecule below has a reported value. Please supply its TGI.
1. CCCCCCCCCCC(C)CCCCCCC(=O)O (stereo not given)
2. CC(C)(C)CC(C)(C)c1ccc(O)c(C[N+](C)(C)[O-])c1
3. CCOC(=O)c1c(-c2cccc3ccccc23)c(C#N)c(=S)n(C2OC(COC(C)=O)C(OC(C)=O)C(OC(C)=O)C2OC(C)=O)c1C (stereo not given)

Data returned:
1. > 100 µM
2. > 100 µM
3. > 100 µM

Hi there! I need TGI for each item below, if you can.
1. Cc1ccc([N+](=O)[O-])c2c(NCC(O)CO)ccnc12 (stereo not given)
2. Oc1c(CN2CCN(c3ccccc3)CC2)cc(Br)c2cccnc12

Data returned:
["> 100 µM", "> 67.4 µM"]

###

System: IGROV1 ovarian
Assay: NCI tumour cell line growth inhibition, 48 h
ATTRIBUTE_MEASURED: TGI

COC1OC2=CCC3C(=O)NC(=O)C3C2[C@H](OCc2ccccc2)C1OCc1ccccc1 (some centres undefined)	3.86 µM

Give TGI for each listed item.
1. O=C(N/N=C/c1cc(Br)cc(Br)c1[O-])c1ccccc1O.O=C(N/N=C/c1cc(Br)cc(Br)c1[O-])c1ccccc1O.[Ni+2]
2. COc1ccc(Cn2cc3c(c2-c2cc(OC)c(OC)c(OC)c2)CCc2cnoc2-3)cc1
3. OCCN1CCN(CC/C=C2/c3ccccc3Sc3ccc(Cl)cc32)CC1

Data returned:
1.34 µM
> 100 µM
28.6 µM

###

Test system: SNB-75 CNS
Experiment: NCI tumour cell line growth inhibition, 48 h
ATTRIBUTE_MEASURED: TGI (µM)
Answers are plain numbers, in µM.

OCCN1CCN(CC/C=C2/c3ccccc3Sc3ccc(Cl)cc32)CC1	12.3
O=[N+]([O-])c1cccc2nccc(NCCCO)c12	62.6
O=C(/C=C\c1cccc2ccccc12)c1cccc2ccccc12	18.6

State recorded TGI for all listed compounds.
1. O=Nc1c(-c2c(O)[nH]c3ccc(Br)cc23)[nH]c2ccccc12
2. O=C(CCCCC(=O)N/N=C\c1ccccc1O)N/N=C\c1ccccc1O

Data returned:
[28.3, 20.5]

###

System: OVCAR-3 ovarian
Assay: NCI tumour cell line growth inhibition, 48 h
Mark true (1) for reported TGI of 900 nM or greater; mark false (0) for anything smaller.

C[C@@H](Nc1nc(Nc2ccc(F)c(Cl)c2)nc2ccccc12)C1CC1	true (1)
O=C1OCC2=C1C(c1ccccc1)c1cc3c(cc1N2CCO)OCCO3 (stereo not given)	false (0)
N#CC1C=Cc2c(ccc3ccccc23)N1C(=O)c1ccccc1 (stereo not given)	false (0)
CCOC(=O)c1c(-c2cccc3ccccc23)c(C#N)c(=S)n(C2OC(COC(C)=O)C(OC(C)=O)C(OC(C)=O)C2OC(C)=O)c1C (stereo not given)	true (1)
CC(=O)c1c2n(n(-c3ccccc3)c1=O)C(=O)c1nccnc1-2	true (1)

Data request: Kindly determine if TGI recorded for "Cc1nc2ccccc2c(/C=C/c2ccc(Cl)cc2)c1C(=O)/C=C/c1ccccc1" is above or exactly 900 nM.
Data returned: true (1)

Data request: Oc1ccc(Cl)cc1C1=NC(/N=C\c2ccccc2)=NC(c2ccccc2)C1 (stereo not given) ?
Data returned: true (1)

Data request: Entry to check: "Cc1cc(I)cc(CN(C)CCCN2CCN(C)CC2)c1O"
Data returned: true (1)

Data request: Next compound up: "O=C1NCCS(=O)(=O)N2CCC[C@@H]12"
Data returned: true (1)

###

Tested on: HOP-62 NSCLC
Assay: NCI tumour cell line growth inhibition, 48 h; in the data active = GI50 below about 0.43 µM; inactive = the rest
Output constraint: value belongs to active, inactive

CCCCCn1c(C)cc(/C=C\c2ccc3cc(C)ccc3[n+]2C)c1C	active
O=C(c1ccccc1)c1c(C(F)(F)F)n([O-])c2ccc(C(F)(F)F)cc2[n+]1=O	active
COC(=O)C(C)NC(=O)c1ccccc1I(OS(=O)(=O)C(F)(F)F)c1ccccc1 (stereo unspecified)	inactive
CCN(CC)C(=S)[S][Bi]([S]C(=S)N(CC)CC)[S]C(=S)N(CC)CC	inactive
O=C(CCc1ccc(O)cc1)N/N=C/c1cc(Br)ccc1O	inactive

Now consider the entry below.
Data request: Look up the recorded call for "CC#Cc1nc(Nc2cc(C)[nH]n2)c2ccccc2n1" in this test.
Data returned: inactive

###

Tested on: UACC-257 melanoma
Test: NCI tumour cell line growth inhibition, 48 h
ATTRIBUTE_MEASURED: TGI

Before answering, review these 10 worked examples.
COC(=O)C(C)NC(=O)c1ccccc1I(OS(=O)(=O)C(F)(F)F)c1ccccc1 (stereo unspecified)	> 100 µM
CC(C)=CCCC(C)C1=C(O)C(=O)C(C)=CC1=O (stereo unspecified)	26.1 µM
O=C(NC(=O)c1ccccc1[N+](=O)[O-])Nc1ccc(Oc2ncc(Cl)cn2)c(C(F)(F)F)c1	41.8 µM
O=C(CSc1nc2ccccc2c(=O)n1-c1ccccc1)N=Nc1c(O)[nH]c2ccc(F)cc12	6 µM
COc1ccc(C2=NN=C3C(c4ccccc4)=Nc4ccccc4N3C2)cc1	> 100 µM
[N-]=[N+]=Nc1c([N+](=O)[O-])c(=O)n2c3c(cccc13)CCC2	21.5 µM
CCCCCCCCCCC(C)CCCCCCC(=O)O (stereo unspecified)	> 100 µM
CC[C@H](C)C(=O)O[C@H]1C[C@H](O)C=C2C=C[C@H](C)[C@H](CC[C@@H](O)C[C@@H](O)CC(=O)O)[C@H]21	> 100 µM
Cc1cn(S(=O)(=O)c2ccccc2)c2c(OCc3ccccc3)cc(NS(C)(=O)=O)cc12	> 78 µM
COc1c(B(O)O)cc(F)cc1-c1nc2ccc3[nH]ncc3c2c2c1CCCC2	12.5 µM

Each molecule below has a recorded value; state its TGI.
1. Cn1c(=O)c2/c(n(C)c1=O)=N\C=c1\c(=O)n(C)c(=O)n(C)\c1=N\C=2
2. O=C(O)C(=O)/C=C(\O)c1ccc(Br)cc1
3. CCSc1ccc(C2C(Br)C(=O)N2c2cc(OC)c(OC)c(OC)c2)cc1 (stereo unspecified)
4. COc1cc(Br)c(CC2C3=C(CCN2C(=O)C2CCC2)CC(=O)CC3)cc1O (stereo unspecified)

Data returned:
> 100 µM
> 100 µM
> 100 µM
> 100 µM

Items follow; give TGI for each.
1. O=S1Nc2c(Cl)cc(Cl)c(Cl)c2S1 (stereo unspecified)
2. O=C1NCCS(=O)(=O)N2CCC[C@@H]12
3. CC(=O)/C(=C/N1CCNC1=S)C(=O)Nc1ccccc1C
4. CCCCCCCCCCCCCCCCCC(=O)Nc1ccn(C2OC(CO)C(O)C2O)c(=O)n1 (stereo unspecified)

Data returned:
1: > 100 µM; 2: > 100 µM; 3: > 100 µM; 4: > 100 µM

###

Test system: NCI/ADR-RES ovarian
Test: NCI tumour cell line growth inhibition, 48 h; in the data active = GI50 below about 0.43 µM; inactive = the rest
Select the matching outcome among active, inactive

CCN(CC)C(=S)[S][Bi]([S]C(=S)N(CC)CC)[S]C(=S)N(CC)CC	active
O=c1oc2c(C(F)(F)F)cccc2cc1-c1csc(Nc2ccc(OCCF)cc2)n1	active
O=C(NC(=S)Nc1cc(Cl)ccc1O)c1cccc(Br)c1	inactive
CCCCCn1c(C)cc(/C=C\c2ccc3cc(C)ccc3[n+]2C)c1C	inactive
CC(C)(C)c1ccc(NS(=O)(=O)c2ccc3nc(NC(=O)c4cnccn4)[nH]c3c2)cc1	inactive
O=C1C(Cl)=C(Nc2cccc(C(F)(F)F)c2)C(=O)N1Cc1ccc(Cl)cc1	active
Cc1cc(Nc2cc(N)ncn2)c(=O)n2c1C(=O)NC21CCCCC1	inactive
C=C1C(=O)O[C@H]2[C@H]1CC/C(COC(=O)NCc1ccc(Cn3c(=O)sn(-c4ccccc4)c3=O)cc1)=C\CC[C@@]1(C)O[C@@H]21	inactive

Data request: Write down the call the test reported for this molecule. Item: "C/C(=N\NC(=S)N(C)C)c1ccccn1"
Data returned: active

Data request: Entry "COc1cc(NC(=O)C2=C(N3CCOCC3)/C(=C/c3ccc(Cl)cc3)CC2)cc(OC)c1OC" please
Data returned: inactive

Data request: Item: "COc1cccc2c1n([O-])c1cccc(OC)c1[n+]2=O"
Data returned: inactive

Data request: And what about the molecule "CC(=O)c1cc(O)c2ccccc2c1O" ?
Data returned: inactive

###

Task for the reader: assign each of the following compounds its reported TGI.
Test system: UO-31 renal
Assay: NCI tumour cell line growth inhibition, 48 h
Answers are plain numbers, in µM.

CCN(CC)C(=S)[S][Bi]([S]C(=S)N(CC)CC)[S]C(=S)N(CC)CC	0.468
CCSc1ccc(C2C(Br)C(=O)N2c2cc(OC)c(OC)c(OC)c2)cc1 (stereo not given)	15.5
C=C1C(=O)O[C@H]2[C@H]1CC/C(COC(=O)NCc1ccc(Cn3c(=O)sn(-c4ccccc4)c3=O)cc1)=C\CC[C@@]1(C)O[C@@H]21	3.16
Nc1ncc(-c2cccc(S(N)(=O)=O)c2)c2scc(-c3ccc(F)c(Cl)c3)c12	21
O=[N+]([O-])C(Cl)=C/C(=C(\Cl)SCc1ccccc1)[N+](=O)[O-]	40.2
O=C1c2ccccc2C(=O)c2[nH]c(Cc3ccc(F)cc3)nc21	59.5
C/C=C(/C)C(=O)O[C@H]1[C@H](O)CC(c2ccc3c(c2O)C(O)=C2C(=O)C4(OC)C(O)=C(C(N)=O)C(=O)[C@H](CC(=O)c5ccccc5O)C4CC2[C@@]3(C)OC)O[C@@H]1C (stereo not given in full)	2.34
Oc1cc(Br)cc2cc(Cl)cnc12	17.4

Can you give me TGI for all of these, one by one?
1. OC(CC(O)(C(F)(F)F)C(F)(F)F)c1ccc(C(O)CC(O)(C(F)(F)F)C(F)(F)F)cc1 (stereo not given)
2. COc1ccc(-c2nn(-c3ccc(NC(=O)Nc4ccc(Cl)c(C(F)(F)F)c4)cc3)cc2-c2ccncc2)cc1Cl

Data returned:
[23, 3.05]
